# system.name: Prostaglandin G/H synthase 1 (Ovis aries, UniProt P05979)
# Sequence (P05979 whole entry): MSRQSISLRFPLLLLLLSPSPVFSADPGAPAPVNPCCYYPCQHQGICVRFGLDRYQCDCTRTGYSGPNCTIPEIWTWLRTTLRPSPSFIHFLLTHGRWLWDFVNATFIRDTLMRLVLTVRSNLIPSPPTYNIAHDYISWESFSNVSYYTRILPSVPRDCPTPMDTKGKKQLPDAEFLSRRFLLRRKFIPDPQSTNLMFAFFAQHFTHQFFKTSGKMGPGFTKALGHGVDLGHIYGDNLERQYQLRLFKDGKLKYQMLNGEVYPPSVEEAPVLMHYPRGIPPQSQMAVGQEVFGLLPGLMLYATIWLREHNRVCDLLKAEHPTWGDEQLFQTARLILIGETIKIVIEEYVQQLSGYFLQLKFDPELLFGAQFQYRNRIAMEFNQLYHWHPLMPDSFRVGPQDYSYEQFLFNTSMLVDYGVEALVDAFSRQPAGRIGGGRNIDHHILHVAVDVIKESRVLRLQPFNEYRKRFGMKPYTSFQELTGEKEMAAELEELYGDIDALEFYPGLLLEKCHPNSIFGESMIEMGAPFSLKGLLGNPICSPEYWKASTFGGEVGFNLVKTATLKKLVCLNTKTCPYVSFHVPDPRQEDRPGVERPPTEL
test.readout: IC50 (µM)
Please state the figure in µM; there is no need to write the unit.

Examples with answers:
C/C=C/c1cc(OC)c2c(c1)[C@H](C)[C@@H](c1ccc3c(c1)OCO3)O2 [(-)-LICARIN B] ... 366
C=CCC1=C[C@]2(OC)[C@H](C)[C@@H](c3cc(OC)c4c(c3)OCO4)[C@](OC)(C1=O)[C@H]2O ... 28.3
C=CCC1=C[C@@]2(OC)C(=CC1=O)O[C@H](c1cc(OC)c(OC)c(OC)c1)[C@H]2C ... 77.9
C=CCC1=C[C@@]2(OC)C(=O)[C@](OC)([C@H](c3cc(OC)c4c(c3)OCO4)[C@H]2C)[C@H]1O ... 188
C/C=C/c1cc(OC)c2c(c1)[C@@H](C)[C@H](c1ccc3c(c1)OCO3)O2 ... 289

# evaluate next
Problem: Test system Prostaglandin G/H synthase 1 (Ovis aries, UniProt P05979); read-out IC50; what value for `C=CCC1=C[C@@]2(OC)[C@H](C)[C@@H](c3cc(OC)c4c(c3)OCO4)[C@H](C1=O)[C@@H]2O` ?
Result: 32.5

====

The reader will find reported IC50 values listed item by item below.
# experiment.notes: Antiplatelet activity in rabbit platelets assessed as inhibition of arachidonic acid-induced platelet aggregation
# Format: functional, cell-based, Oryctolagus cuniculus
# experimental.context: Oryctolagus cuniculus, Platelet
Write down the value, and be sure its unit follows.

Examples with answers:
C=CCC1=C[C@]2(OC)[C@@H](O)[C@@](OC)(C1=O)[C@@H](c1cc(OC)c(OC)c(OC)c1)[C@@H]2C (stereo in doubt; 8) ... 68.7 µM
C/C=C/c1cc(OC)c2c(c1)[C@H](C)[C@@H](c1ccc(O)c(OC)c1)O2 ... 489 µM

# evaluate next
Problem: For the molecule shown here, `C=CCC1=C[C@@]2(OC)[C@H](C)[C@@H](c3cc(OC)c4c(c3)OCO4)[C@H](C1=O)[C@@H]2O` , give the reported IC50.
Result: 42.8 µM

====

# experiment.notes: Antiplatelet activity in rabbit platelets assessed as inhibition of arachidonic acid-induced platelet aggregation
# Format: functional, cell-based, Oryctolagus cuniculus
# experimental.context: Oryctolagus cuniculus, Platelet
test.readout: IC50 (µM)
Please state the figure in µM; there is no need to write the unit.

COc1cc(-c2oc3c(OC)cc(C=O)cc3c2C)cc(OC)c1OC ... 425
C/C=C/c1cc(OC)c2c(c1)[C@@H](C)[C@H](c1ccc(OC)c(OC)c1)O2 ... 222
C=CCC1=C[C@@]2(OC)[C@@H](C)[C@H](c3cc(OC)c(OC)c(OC)c3)[C@](OC)([C@H]1O)[C@H]2O ... 21.6

Problem: For the compound shown here, `C=CCC1=C[C@]2(OC)C(=O)[C@@](OC)(C1=O)[C@H](c1cc(OC)c3c(c1)OCO3)[C@H]2C` , give the reported IC50.
Result: 75.6

Problem: For the compound shown here, C=CCC1=C[C@]2(OC)C(=CC1=O)O[C@@H](c1ccc(OC)c(OC)c1)[C@H]2C [(+)-DENUDATIN B] , give the reported IC50.
Result: 58.3

Problem: For the compound shown here, `C=CCC1=C[C@]2(OC)C(=O)C(C1=O)[C@H](c1cc(OC)c(OC)c(OC)c1)[C@H]2C` , give the reported IC50.
Result: 78.9

Problem: For the compound shown here, `C=CCC1=C[C@@]2(OC)C(=O)[C@](OC)([C@H](c3cc(OC)c4c(c3)OCO4)[C@H]2C)[C@H]1O` , give the reported IC50.
Result: 25.6

Problem: For the compound shown here, `C=CCC1=C[C@]2(OC)[C@H](C)[C@@H](c3cc(OC)c4c(c3)OCO4)[C@](OC)(C1=O)[C@H]2O` , give the reported IC50.
Result: 85.8

Problem: For the compound shown here, C/C=C/c1cc(OC)c2c(c1)[C@H](C)[C@@H](c1ccc3c(c1)OCO3)O2 [(-)-LICARIN B] , give the reported IC50.
Result: 290

Problem: For the compound shown here, `COc1cc(C=O)cc2c(C)c(-c3ccc4c(c3)OCO4)oc12` , give the reported IC50.
Result: 568

Problem: For the compound shown here, `C/C=C/c1cc(OC)c2c(c1)[C@@H](C)[C@H](c1ccc(O)c(OC)c1)O2` , give the reported IC50.
Result: 556

Problem: For the compound shown here, `C=CCC1=C[C@@]2(OC)C(=CC1=O)O[C@H](c1ccc(OC)c(OC)c1)[C@H]2C` , give the reported IC50.
Result: 5.61

Problem: For the compound shown here, `C=CCC1=C[C@@]2(OC)[C@H](C)[C@@H](c3ccc(OC)c(OC)c3)[C@H](C1=O)[C@@H]2O` , give the reported IC50.
Result: 54.6

Problem: For the compound shown here, `C/C=C/c1cc(OC)c2c(c1)[C@@H](C)[C@H](c1ccc3c(c1)OCO3)O2` , give the reported IC50.
Result: 326

Problem: For the compound shown here, `CC(=O)Oc1ccccc1C(=O)O` , give the reported IC50.
Result: 5.33

Problem: For the compound shown here, `C=CCC1=C[C@@]2(OC)[C@H](C)[C@@H](c3ccc4c(c3)OCO4)[C@H](C1=O)[C@H]2O` , give the reported IC50.
Result: 45.6

====

# experiment.notes: Antiplatelet activity in rabbit platelets assessed as inhibition of arachidonic acid-induced platelet aggregation
# Assay type: functional, cell-based, Oryctolagus cuniculus
# experimental.context: Oryctolagus cuniculus, Platelet
The reader will find reported pIC50 values listed item by item below.
Convention used: pIC50 is expressed as -log10 of the molar concentration.

Examples with answers:
C=CCc1cc(OC)c2oc(-c3ccc4c(c3)OCO4)cc2c1 [NEOLIGNAN 9-NOR-7,8-DEHYDRO-ISOLICARIN B] ... 3.37
C=CCc1cc2c(cc1O)O[C@H](c1ccc3c(c1)OCO3)[C@H]2C ... 3.84
C[C@@H]1C(=O)O[C@H]2[C@H](O)[C@@]34[C@H]5C[C@@H](C(C)(C)C)[C@]36[C@@H](OC(=O)[C@@H]6O)O[C@@]4(C(=O)O5)[C@@]12O [GINKOLIDE B] ... 4.12
C=CCC1=C[C@@]2(OC)[C@H](C)[C@@H](c3cc(OC)c(OC)c(OC)c3)[C@H](C1=O)[C@H]2O ... 4.31
C=CCC1=C[C@@]2(OC)[C@H](C)[C@@H](c3ccc(OC)c(OC)c3)[C@H](C1=O)[C@H]2O ... 4.41
C=CCC1=C[C@]2(OC)C(=O)C([C@@H]1O)[C@H](c1cc(OC)c(OC)c(OC)c1)[C@H]2C ... 4.63

# evaluate next
Problem: For the compound shown here, `C=CCC1=C[C@@]2(OC)C(=CC1=O)O[C@H](c1cc(OC)c(OC)c(OC)c1)[C@H]2C` , give the reported pIC50.
Result: 4.41

====

# experiment.notes: Antiplatelet activity in rabbit platelets assessed as inhibition of adenosin 5'-diphosphate-induced platelet aggregation
# Type: functional, cell-based
# experimental.context: Oryctolagus cuniculus
The reader will find reported pIC50 values listed item by item below.
Convention used: pIC50 is expressed as -log10 of the molar concentration.

Examples with answers:
C=CCc1cc2c(cc1O)O[C@H](c1ccc3c(c1)OCO3)[C@H]2C ... 3.91
C=CCC1=C[C@@]2(OC)C(=CC1=O)O[C@H](c1ccc(OC)c(OC)c1)[C@H]2C ... 4.42
C=CCC1=C[C@@]2(OC)[C@H](C)[C@@H](c3ccc4c(c3)OCO4)[C@H](C1=O)[C@H]2O ... 3.20

# evaluate next
Problem: For the compound shown here, `COc1cc(C=O)cc2c(C)c(-c3ccc4c(c3)OCO4)oc12` , give the reported pIC50.
Result: 3.99

====

# experiment.notes: Antiplatelet activity in rabbit platelets assessed as inhibition of adenosin 5'-diphosphate-induced platelet aggregation
# Type: functional, cell-based
# experimental.context: Oryctolagus cuniculus
test.readout: IC50

Examples with answers:
C=CCC1=C[C@@]2(OC)[C@@H](C)[C@H](c3cc(OC)c(OC)c(OC)c3)[C@](OC)([C@H]1O)[C@H]2O ... > 999 µM
C=CCC1=C[C@@]2(OC)[C@H](C)[C@@H](c3cc(OC)c4c(c3)OCO4)[C@H](C1=O)[C@@H]2O ... > 999 µM

# evaluate next
Problem: For the molecule shown here, `C=CCC1=C[C@@]2(OC)[C@H](C)[C@@H](c3cc(OC)c(OC)c(OC)c3)[C@H](C1=O)[C@H]2O` , give the reported IC50.
Result: > 999 µM
